pIC50: −log10 of the molar value.
Endpoint: pIC50. System: Cell division cycle 7-related protein kinase (Homo sapiens, UniProt O00311). Items follow.
Sequence (O00311 whole entry): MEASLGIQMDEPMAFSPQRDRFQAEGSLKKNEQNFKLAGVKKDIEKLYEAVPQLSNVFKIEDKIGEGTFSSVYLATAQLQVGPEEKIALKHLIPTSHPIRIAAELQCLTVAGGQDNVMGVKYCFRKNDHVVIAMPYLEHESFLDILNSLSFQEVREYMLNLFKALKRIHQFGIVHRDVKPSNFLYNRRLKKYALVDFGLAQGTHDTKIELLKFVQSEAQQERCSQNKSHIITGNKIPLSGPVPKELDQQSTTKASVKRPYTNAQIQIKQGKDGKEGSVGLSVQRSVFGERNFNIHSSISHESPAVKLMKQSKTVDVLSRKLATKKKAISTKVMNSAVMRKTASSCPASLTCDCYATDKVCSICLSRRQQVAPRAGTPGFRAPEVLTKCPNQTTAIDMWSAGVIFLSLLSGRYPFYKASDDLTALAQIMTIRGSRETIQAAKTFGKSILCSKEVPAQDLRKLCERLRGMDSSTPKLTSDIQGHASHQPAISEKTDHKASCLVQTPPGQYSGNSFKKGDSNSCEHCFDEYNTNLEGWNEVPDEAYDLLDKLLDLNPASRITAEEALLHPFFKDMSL
RECORDED ENDPOINT: pIC50

[[record]]
molecule = "Nc1nccc(-c2cc3c([nH]2)C(C2CCC2)CNC3=O)n1 (stereo in doubt; 88-1)"
target_or_test_system = "Cell division cycle 7-related protein kinase (Homo sapiens, UniProt O00311)"
recorded_endpoint = "pIC50"
measured = 7.96

[[record]]
molecule = "CC(C)C1CNC(=O)c2cc(-c3ccnc(N)n3)[nH]c21 (stereo in doubt; 87-2)"
target_or_test_system = "Cell division cycle 7-related protein kinase (Homo sapiens, UniProt O00311)"
recorded_endpoint = "pIC50"
measured = 9.00

[[record]]
molecule = "Nc1nccc(-c2cc3c([nH]2)CC(C2CC2)NC3=O)n1 (configuration not stated)"
target_or_test_system = "Cell division cycle 7-related protein kinase (Homo sapiens, UniProt O00311)"
recorded_endpoint = "pIC50"
measured = 7.96

[[record]]
molecule = "CCC1CNC(=O)c2cc(-c3ccnc(N)n3)[nH]c21 (stereo in doubt; 86-1)"
target_or_test_system = "Cell division cycle 7-related protein kinase (Homo sapiens, UniProt O00311)"
recorded_endpoint = "pIC50"
measured = 8.40

[[record]]
molecule = "CC1CNC(=O)c2cc(-c3ccnc(N)n3)[nH]c21 (configuration not stated)"
target_or_test_system = "Cell division cycle 7-related protein kinase (Homo sapiens, UniProt O00311)"
recorded_endpoint = "pIC50"
measured = 8.22

[[record]]
molecule = "CC1Cc2[nH]c(-c3ccncc3)cc2C(=O)N1 (configuration not stated)"
target_or_test_system = "Cell division cycle 7-related protein kinase (Homo sapiens, UniProt O00311)"
recorded_endpoint = "pIC50"
measured = 7.89

[[record]]
molecule = "CC1(C)Cc2[nH]c(-c3ccnc(N)n3)cc2C(=O)N1"
target_or_test_system = "Cell division cycle 7-related protein kinase (Homo sapiens, UniProt O00311)"
recorded_endpoint = "pIC50"
measured = 7.19

[[record]]
molecule = "Nc1nccc(-c2cc3c([nH]2)[C@@H](CCF)CNC3=O)n1"
target_or_test_system = "Cell division cycle 7-related protein kinase (Homo sapiens, UniProt O00311)"
recorded_endpoint = "pIC50"
measured = 8.70

[[record]]
molecule = "CC1CNC(=O)c2cc(-c3ccncc3)[nH]c21 (configuration not stated)"
target_or_test_system = "Cell division cycle 7-related protein kinase (Homo sapiens, UniProt O00311)"
recorded_endpoint = "pIC50"
measured = 8.00

[[record]]
molecule = "CC(C)CC1Cc2[nH]c(-c3ccncc3)cc2C(=O)N1 (configuration not stated)"
target_or_test_system = "Cell division cycle 7-related protein kinase (Homo sapiens, UniProt O00311)"
recorded_endpoint = "pIC50"
measured = 8.52

[[record]]
molecule = "CC(C)CC1Cc2[nH]c(-c3ccnc(N)n3)cc2C(=O)N1 (configuration not stated)"
target_or_test_system = "Cell division cycle 7-related protein kinase (Homo sapiens, UniProt O00311)"
recorded_endpoint = "pIC50"
measured = 8.10

[[record]]
molecule = "Nc1nccc(-c2cc3c([nH]2)C(CCO)CNC3=O)n1 (configuration not stated)"
target_or_test_system = "Cell division cycle 7-related protein kinase (Homo sapiens, UniProt O00311)"
recorded_endpoint = "pIC50"
measured = 8.40

